Where do the numbers come from? From patent US4368199A.

Consider the following compounds and their measured change in vivo at 2.5 mg/kg readings.
Test system: dogs
Assay: Haemodynamic tests on dogs anaesthetized with sodic pentobarbital (arterial pressure, cardiac frequency, coronary flow, cardiac contractile force)
Type: in vivo
Conditions: Canis lupus familiaris, iv; dog, 2.5 mg/kg/i.v.; read-out: Increase of the coronary flow
Method: Tests were carried out on dogs anaesthetized with sodic pentobarbital (30 mg/kg/i.v.) and the compounds of formula (I) were administered intravenously. The activity on the cardiac contractile force was measured with a BRODIE and WALTON stress gauge fixed to the left ventricle. The arterial pressure was measured at the femoral artery with a SANBORN pressure sensor. The cardiac frequency was automatically counted by means of a cardiotachymeter from the pulse pressure wave. […]
Counter-ions that a name gives are not always drawn.
// return numeric value only (unit: %, not printed)

Example compounds with recorded change in vivo at 2.5 mg/kg:
- Compound: "COc1cc(C=CC(=O)N2CCN(C3CCc4cc(O)c(O)cc4C3)CC2)cc(OC)c1OC (centres unmarked) [Compound 108, hydrate]"
  Measured Result: 29
- Compound: "COc1cc(C=CC(=O)N2CCN(CC(=O)c3ccc(OC)c(OC)c3OC)CC2)cc(OC)c1OC"
  Measured Result: 416
- Compound: "CNC(=O)Nc1ccc(CCN2CCN(C(=O)C=Cc3cc(OC)c(OC)c(OC)c3)CC2)cc1"
  Measured Result: 181

Can you share its change in vivo at 2.5 mg/kg? I mean this compound: "COc1ccc(OC)c(C(=O)CN2CCN(C(=O)C=Cc3cc(OC)c(OC)c(OC)c3)CC2)c1"
27

Follow-up item: COc1ccc(CC(O)CN2CCN(C(=O)C=Cc3cc(OC)c(OC)c(OC)c3)CC2)cc1OC (centres unmarked) [Compound 102, hydrochloride hydrate]
34

Follow-up item: "COc1cc(C=CC(=O)N2CCN(CC(=O)c3ccc(OC)c4c3OCCO4)CC2)cc(OC)c1OC"
46

Follow-up item: CNC(=O)Nc1ccc(C(O)CN2CCN(C(=O)C=Cc3cc(OC)c(OC)c(OC)c3)CC2)cc1 (centres unmarked)
27

Follow-up item: "COc1cc(C=CC(=O)N2CCN(CCc3cccc(O)c3)CC2)cc(OC)c1OC"
62

Follow-up item: COc1ccc(OC)c(C(O)CN2CCN(C(=O)C=Cc3cc(OC)c(OC)c(OC)c3)CC2)c1 (centres unmarked)
15

Follow-up item: "COc1cc(C=CC(=O)N2CCN(CCc3c[nH]c4ccccc34)CC2)cc(OC)c1OC"
55
